Tested on: OTC-APT5 (DNA, aptamer) ACGACATTCCGTTGATCTCTCCCTTTTGGGTTGGTGTCGT
Assay: fluorescence titration
Settings: 100 mM NaCl, 5 mM KCl, 2 mM MgCl2, 2 mM CaCl2; 20 mM tris, 0.05% Tween 20; 200 nM OTC titrated with aptamer; unit likely misprint for nM
endpoint: Kd (nM)

1) CN(C)[C@@H]1C(=O)C(C(N)=O)=C(O)[C@@]2(O)C(=O)C3=C(O)c4c(O)cccc4[C@@](C)(O)[C@H]3[C@H](O)[C@@H]12 ... 106
